assayed-target: Rap guanine nucleotide exchange factor 4 (Homo sapiens) (UniProt Q8WZA2)
Sequence (Q8WZA2 whole entry, looked up): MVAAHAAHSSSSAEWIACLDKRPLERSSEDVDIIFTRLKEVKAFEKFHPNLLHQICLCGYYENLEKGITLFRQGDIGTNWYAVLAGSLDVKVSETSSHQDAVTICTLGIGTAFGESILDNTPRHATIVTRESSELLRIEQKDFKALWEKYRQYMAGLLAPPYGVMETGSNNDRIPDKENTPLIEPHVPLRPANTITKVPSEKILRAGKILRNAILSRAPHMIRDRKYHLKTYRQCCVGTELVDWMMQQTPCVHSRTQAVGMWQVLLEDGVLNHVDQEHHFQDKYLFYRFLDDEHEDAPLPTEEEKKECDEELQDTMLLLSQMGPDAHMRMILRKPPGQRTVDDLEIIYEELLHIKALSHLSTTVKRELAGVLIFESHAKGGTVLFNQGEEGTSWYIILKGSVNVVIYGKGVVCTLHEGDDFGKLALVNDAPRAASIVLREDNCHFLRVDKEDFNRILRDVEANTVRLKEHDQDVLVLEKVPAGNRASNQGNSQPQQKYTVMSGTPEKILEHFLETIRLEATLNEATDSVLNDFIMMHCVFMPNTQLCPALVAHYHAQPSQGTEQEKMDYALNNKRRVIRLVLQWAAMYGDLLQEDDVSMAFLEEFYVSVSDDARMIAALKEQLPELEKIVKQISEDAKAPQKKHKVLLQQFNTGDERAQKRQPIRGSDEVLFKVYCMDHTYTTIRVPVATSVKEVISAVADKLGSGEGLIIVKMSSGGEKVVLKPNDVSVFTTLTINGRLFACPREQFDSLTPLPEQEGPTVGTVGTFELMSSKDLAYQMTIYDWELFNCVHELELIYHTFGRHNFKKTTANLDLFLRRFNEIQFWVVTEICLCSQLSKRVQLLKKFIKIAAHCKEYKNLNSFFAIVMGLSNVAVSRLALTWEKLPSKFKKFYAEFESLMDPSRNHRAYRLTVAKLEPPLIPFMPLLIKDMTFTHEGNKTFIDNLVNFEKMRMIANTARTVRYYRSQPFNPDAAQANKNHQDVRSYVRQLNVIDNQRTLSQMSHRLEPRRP
assay-procedure: Confirmatory qHTS for antagonist of cAMP-regulated guanine nucleotide exchange factor 4 (EPAC2) (AID 1645885); further: nearly all actives have a fitted effect of over 25% in size
conditions-used: EPAC2 Rap1B-BODIPY-GDP exchange fluorescence, biochemical; series mostly up to 114 µM
Results filed as inconclusive are left out. Calls of active or inactive are those of the source. The call rests on the fitted dose curve; in most records, active means well fitted inhibition curve with a large enough effect; inconclusive means small, poorly fitted or top-dose-only effect; inactive means no such curve, though single readings can be large or run the other way.
Select the correct class. Options are true = active, false = inactive and nothing else.

Example entries and their recorded answers appear below.
compound: COC(=O)N1CCC2(CCCN(c3cccc(-c4ccccc4)c3)C2)CC1
class-assignment: false
//
compound: COc1ccc2[nH]cc(CCNc3ncnc4ccc(-c5ccccc5C#N)cc34)c2c1
class-assignment: false
//
compound: Cn1cc(-c2nc3cnc(N4CCOCC4)nc3n(CCC#N)c2=O)c2ccccc21
class-assignment: false

Pending compound:
q: Can you look up the reported call for CCC(=O)OC1CCC2C3CCc4cc(O)ccc4C3CC[C@]12C (stereo not given in full) for me?
a: true
